Note to self: these compounds have pIC50 reported for HPK1 (Homo sapiens (Human)) in various publications.
pIC50: −log10 of the molar value.

Past entries and their recorded results:
INSERT INTO results (compound, attribute_measured, recorded_measurement) VALUES
  ('Cc1cc(-c2c[nH]c3ncc(-c4cc(C)c5c(c4)CCN(CCC(=O)NC4CCN(c6ccc(N7CCC(=O)NC7=O)cc6)CC4)C5)nc23)ccc1C(=O)N(C)C', 'pIC50', 6.85),
  ('Cc1ncc(-c2cnc(N)c(OCc3ccncc3)c2)s1', 'pIC50', '6.00 to 7.00'),
  ('Nc1ncc(-c2cccc(N3CCOCC3=O)c2)cc1OCc1ccncc1', 'pIC50', '< 6.00'),
  ('CC(Oc1cc(-c2cnc(C3CCN(C)CC3)s2)cnc1N)c1ccncc1 (centres unmarked)', 'pIC50', '6.00 to 7.00'),
  ('CN1CCN(c2ccc3cc2OCCOCc2cccc(F)c2-c2cc4c-3n[nH]c4cn2)CC1', 'pIC50', '≥ 8.30'),
  ('Cc1cc(-c2cnc(N)c(Oc3cnn(C4CCN(C)CC4)c3)n2)cc(C)c1CNC1(C)COC1', 'pIC50', 7.40);

Form field pIC50, entry "Cc1cc(-c2cnc(N)c(Oc3cnn(C4CCN(C)CC4)c3)n2)cc(C2(O)COC2)c1Cl" : 7.24

Form field pIC50, entry Cc1cc(-c2cnc3[nH]cc(C(F)(F)F)c3c2)nc(C2COCCN2)c1C1CCOCC1 (centres unmarked) : 8.30 to 11.00

###

pIC50: −log10 of the molar value.
Note to self: these compounds have pIC50 reported for HPK1 (Homo sapiens (Human)) in various publications.

Past entries and their recorded results:
INSERT INTO results (compound, recorded_measurement) VALUES
  ('CN(C)C1(C)CCN(c2ccc3cc2OCCCOCc2cccc(F)c2-c2cc4c-3n[nH]c4cn2)CC1', '≥ 8.30'),
  ('CNCc1cc(-c2cnc(N)c(Oc3cnn(C4CCN(C)CC4)c3)n2)cc(N2CCC[C@H]2C)n1', 7.92),
  ('CN1C[C@H]2CN(c3ccc4cc3OCCCOc3cccc(F)c3-c3cc5c-4n[nH]c5cn3)CCN2CC1=O', '≥ 8.30'),
  ('CN1CCC(c2ncc(-c3cnc(N)c(OCc4ccncc4)c3)s2)CC1', '> 7.00'),
  ('Cc1cc(-c2cnc3[nH]cc(C(F)(F)F)c3c2)cc([C@H]2COCCN2)c1C1CCOCC1', '8.00 to 8.30');

Lab entry: HPK1 (Homo sapiens (Human)) assay, compound "CCc1c[nH]c2ncc(-c3cccc(N4CCN(C(=O)CCCNC(=O)CC56CC7CC(CC(C7)C5)C6)CC4=O)c3)c(Cl)c12" , pIC50 = 7.00 to 8.00

Lab entry: HPK1 (Homo sapiens (Human)) assay, compound "CCc1c[nH]c2ncc(-c3cccc(N4CCN(C(=O)CCCO[C@@H]5O[C@H](CO)[C@@H](O)[C@H](O)[C@H]5O)CC4=O)c3)c(Cl)c12" , pIC50 = ≥ 8.00

Lab entry: HPK1 (Homo sapiens (Human)) assay, compound CCc1c[nH]c2ncc(-c3cccc(N4CCN(C(=O)COC5CCN(c6cccc7c6C(=O)N(C6CCC(=O)NC6=O)C7=O)CC5)CC4=O)c3)c(Cl)c12 (stereo not shown) , pIC50 = 6.00 to 7.00

Lab entry: HPK1 (Homo sapiens (Human)) assay, compound O=C1CCC(N2C(=O)c3cc(F)c(N4CCC(CCN5CCN(c6cccc(-c7cnc8[nH]cc(C9CC9)c8c7Cl)c6)C(=O)C5)CC4)cc3C2=O)C(=O)N1 (stereo not shown) , pIC50 = 7.00 to 8.00

Lab entry: HPK1 (Homo sapiens (Human)) assay, compound O=C1CCC(N2C(=O)c3ccc(N4CCN(CCCN5CCN(c6cccc(-c7cnc8[nH]cc(C9CC9)c8c7Cl)n6)C(=O)C5)CC4)cc3C2=O)C(=O)N1 (stereo not shown) , pIC50 = ≥ 8.00

Lab entry: HPK1 (Homo sapiens (Human)) assay, compound "CN(C)Cc1cc(Nc2ncc(-c3cnc4cc(F)ccn34)c3c2C(=O)NC3)ccc1[C@@H]1CCOC1" , pIC50 = < 7.00

###

Note to self: these compounds have IC50 reported for HPK1 (Homo sapiens (Human), UniProt Q92918) in various publications.

INSERT INTO results (compound, attribute_measured, recorded_measurement) VALUES
  ('O=C1CCN(c2cnc3cc(C4=CCN(CCCN5CCN(c6cccc(-c7cnc8[nH]cc(C9CC9)c8c7Cl)c6)C(=O)C5)CC4)ccn23)C(=O)N1', 'IC50', '≤ 10 nM'),
  ('CCN1CCC(n2cc(-c3c[nH]c4ncc(-c5cnc(NCCNC(=O)c6cccc(N7CCC(=O)NC7=O)c6)c(C)c5)nc34)cn2)CC1', 'IC50', '8.8 nM'),
  ('COc1cc(-c2cnc3[nH]cc(C(F)(F)F)c3c2)cc([C@H]2COCCN2)c1C1CCOCC1', 'IC50', '10 to 100 nM'),
  ('Cc1cc(-c2cnc(N)c(Oc3cnn(C4CCN(C)CC4)c3)n2)cc(C2(O)COC2)c1', 'IC50', '10 nM'),
  ('CCN1CCC(n2cc(-c3c[nH]c4ncc(-c5ccc(OCCNC(=O)c6ccc(Cl)c(N7CCC(=O)NC7=O)c6)nc5)nc34)cn2)CC1', 'IC50', '7.5 nM');

Lab entry: HPK1 (Homo sapiens (Human), UniProt Q92918) assay, compound O=C1CCC(N2Cc3cc(N4CCC(OCC(=O)N5CCN(c6cccc(-c7cnc8[nH]cc(C9CC9)c8c7Cl)c6)C(=O)C5)CC4)ccc3C2=O)C(=O)N1 (stereo not shown) , IC50 = ≤ 10 nM

###

Note to self: these molecules have pIC50 reported for UniProtKB Q92918 in various publications.
Note on pIC50: it is the negative log10 of concentration, concentration in mol/L.

Past entries and their recorded results:
INSERT INTO assay_data (molecule, assayed_system, recorded_measurement) VALUES
  ('Cc1cc(-c2cnc(N)c(Oc3cnn(C4CCN(C)CC4)c3)n2)cc(C)c1CNC(=O)NC1(C(F)(F)F)CC1', 'UniProtKB Q92918', 7.80),
  ('Cc1cc(-c2cnc3[nH]cc(-c4ccc(C(=O)N(C)C[C@H](C)O)cc4)c3n2)cc2c1CN(CCC(=O)N1CCN(c3ccc(N4CCC(=O)NC4=O)cc3)CC1)CC2', 'UniProtKB Q92918', 7.70);

Consider the additional molecule presented here.
Lab entry: UniProtKB Q92918 assay, molecule CCN1CCC(n2cc(-c3c[nH]c4ncc(-c5ccc(OCCNC6CCC(NC(=O)c7ccc(Cl)c(N8CCC(=O)NC8=O)c7)CC6)nc5)nc34)cn2)CC1 (stereo not shown) , pIC50 = 8.62

###

Note to self: these molecules have IC50 reported for HPK1 (Homo sapiens (Human)) in various publications.

Past entries and their recorded results:
INSERT INTO assay_data (molecule, recorded_measurement) VALUES
  ('CN(C)Cc1nc(-c2cnc3[nH]cc(C(F)(F)F)c3c2)ccc1C1CCOCC1', '10 to 100 nM'),
  ('CN1CCN(c2ccc3cc2OCCCOc2cccc(F)c2-c2cc4c-3n[nH]c4cn2)C[C@@H]1CO', '≤ 5 nM'),
  ('Cc1cc(-c2cnc(N)c(Oc3cnn(C4CCN(C)CC4)c3)n2)cc(S(=O)(=O)NCCN2CCCCC2)c1', '46 nM'),
  ('CCN1CCC(n2cc(-c3c[nH]c4ncc(-c5cnn(C6CCN(C7CCC(NC(=O)c8ccc(Cl)c(N9CCC(=O)NC9=O)c8)CC7)CC6)c5)nc34)cn2)CC1 (stereo not shown)', '3.7 nM'),
  ('O=C1OC[C@@H]2CN(c3ccc4cc3OCCCOc3cccc(F)c3-c3cc5c-4n[nH]c5cn3)CCN12', '≤ 5 nM'),
  ('CN1C[C@H]2C[C@@H]1CN2c1ccc2cc1OCCCOCc1cccc(F)c1-c1cc3c-2n[nH]c3cn1', '≤ 5 nM');

Lab entry: HPK1 (Homo sapiens (Human)) assay, molecule "COCC(=O)N1CCN(c2cccc(-c3cnc4[nH]cc(C5CC5)c4c3Cl)c2)C(=O)C1" , IC50 = ≤ 10 nM

Lab entry: HPK1 (Homo sapiens (Human)) assay, molecule "Cn1ccc2c(-c3cnc(Nc4ccc(N5CCC(O)CC5)cn4)c4c3CNC4=O)ccnc21" , IC50 = > 100 nM

Lab entry: HPK1 (Homo sapiens (Human)) assay, molecule "Cc1cc(-c2cnc(N)c(Oc3cnn(C4CCN(C)CC4)c3)n2)cc(C)c1CNS(=O)(=O)C1CCCC1" , IC50 = 33 nM

Lab entry: HPK1 (Homo sapiens (Human)) assay, molecule "CC(C)(O)[C@H]1CN(c2ccc(Nc3ncc(-c4ccncc4)c4c3C(=O)NC4)cc2)CCO1" , IC50 = > 100 nM

Lab entry: HPK1 (Homo sapiens (Human)) assay, molecule "Cc1cc(-c2cnc(N)c(Oc3cnn(C4CCN(C)CC4)c3)n2)cc(C2(NS(=O)(=O)c3ccccc3)CC2)c1" , IC50 = 70 nM

Lab entry: HPK1 (Homo sapiens (Human)) assay, molecule O=C1CCC(Nc2ccc(C3CCN(CCCN4CCN(c5cccc(-c6cnc7[nH]cc(C8CC8)c7c6Cl)c5)C(=O)C4)CC3)cc2)C(=O)N1 (stereo not shown) , IC50 = ≤ 10 nM

Lab entry: HPK1 (Homo sapiens (Human)) assay, molecule "Clc1c[nH]c2ncc(-c3ccc(C4CCOCC4)c([C@H]4COCCN4)n3)cc12" , IC50 = 10 to 100 nM
